Experiment: soluble fraction after stress (log2 fold change); higher = more stays soluble; pooled small domains, quantitative proteomics;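 note: 20 min heating vs room temperature control held 20 min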
Settings: stress: 75 degC
Records here are stratified by soluble fraction (log2); strata: range 1 = under -3, range 2 = from -3 up to -0.04, range 3 = -0.04 and over

seqString	classLabel
HMDRNIVYSDFIRSVNQGQVSEVLVQGDNIRGRYLNGKVFQTFAPKDPSLISTLRNKGVRISAEPA	range 3
HMTMVVIMNADATQADIEGVISAIEEKGLEAKVMEGAHQKIVGVIGDKTKLAATPLDAMHGVETTVAIS	range 2
HMKQGKGIIVVDGKLMPEDFNVATLSLDEVESITVLKGEKAVALYGEKAKEREVLLITTQKG	range 3
HMAPVTPEERAQAMEEYKAMVTIEGYTPPKNIIEQNYKRGLWSETMLNMAVTKGAITEAEKLEIMN	range 3
HMAALTADEAKQIALKHAGVAESDVQRLKVEQDRDDGRLLYEVEWDVGRTEYSYEIDANTGDILNYEKDV	range 3
HMADFIGMNATVTERIFPQGFGRISFVYEGNSISEPARSEDGKEIPTGTSVVVLEVRDKVYIVQPL	range 2
HMVYNGYYAKSFNGYVVILNGDEKTVYEYTQIPIHLLPEDIRSSVMSGYYLENETDLYNFLENYS	range 1
HMEGRTVMATTAVNVRSGPGTSYKILGVLYPGHTAQQIGNTRYGWAQVTWKGHTAYIAARYLRDS	range 2
HMTVDYDKFTKDTVVQHNKFGKGVIIMTSGDGEDKIASIAFQGLGVKRFSLAIAASNLKILGKVNED	range 2
HMKIEETLGKTAQVYIPIPQYLSGIGKVTLSVRGSLRELDAMTEEEKIPSNTIVRIVKVQDQVLFVKRA	range 1
HMIYWGTMVDKIYEVLSLAGKPLSLMEIYQQVKVFFPNSTKSSIEASMRLDARHRFKYDVEGHVYSLVD	range 1
HMKLVTIPNVIGKTKEDAMKTLKDLGVTVTVETKESEKDDGTVIAQSKAEGTKLTAGENVTITVSKKKK	range 3
HMTKGVQMFAEQLKRTRQSRHYSQAEIASKLGVTQQAIAKWETGVSTPSPTSISKLSDILGISTDVLLKGA	range 3
HMVKNLRKLREELGLTQQRLAELTGISKSRIYSYESLDREPDIAGLITLADFFSVSIDYLVGK	range 2
HMEVSLEDKMDYLTNYATTHKNFSFRNLLESSSGKIEVIVTFLAILELMKMGRINISQEHIFDDIIIESRI	range 2
HMGKSKAAQSSLVRSIMHQISDKNRGPMPLSEIIDRASIQSIDEAIVRSLVSRMKEQGEIYEPSLGTYEF	range 2

====

Assay: soluble fraction after stress (log2 fold change); higher = more stays soluble; pooled small domains, quantitative proteomics
Conditions: stress: 75 degC
Listed next: entries and their corresponding soluble fraction (log2).

seqString	soluble fraction (log2)
HMGTRPAYAADAPNPQKRFIYHRIVDQLRNKATGAPISYRAIAAETGVSVQTVINIKNRMNQMLSEK	-1.27
HMIITTPYKVTASAINIRSGRGTSYSIIGTVSKGQTVDVYNNSLSKGWVKVKFSGSVGYAYAKYLEK	-1.62
HMKNANGYGSITKLKGNRRKPYMVRITVGRDENGFPIRKVLGYYSSKANAVAALSDYNREPYDI	-1.78
HMFSQDQIFLRSGEKIDARVIEVTPEFIKYKSKANPEGPLYSKKITDVLLITYANGTTEVYE	-0.764
HMKISDMIETNLKFLRGKHSISQAELAESLGIPRTTLSAYERGFVEPNIELMLKMAKYFNVSLDDLIAYN	-2.07
HMHLDIGQLVQRILADIQVGKLADGQRKLPAEPVLMERYQVTRYTLRQALKQLSNMGYTYQMHGIGTFVRQ	-1.79
HMVSLLDWAYKQVRRMLFSGDLPQGQKIVVAQLANQLSISPTPVKEALNRLAVEGLLEAVPRRGFQVR	-0.548
HMIMTIYEYIARNNPTGAKRVIESFGYVVTQPKKMGDNLRMLVAQEGEPALKAVVDLHPDKDLILEV	-2.69
